- System: EKVX
- method summary: NCI tumour cell line growth inhibition, 48 h
Calls of active or inactive are those of the source. Rule as the data show it: active = GI50 up to about 1.1 µM and inactive = higher.
experimental endpoint: GI50

                                   compound  experimental_endpoint      measured_result
0  O=S1(=O)NC2CCC3NS(=O)(=O)NC4CCC(N1)N4S(=O)(=O)N23 (stereo not given)                   GI50  > 100 µM (inactive)
1  Cc1cccc(C)c1NC(=O)CCCC(=O)C(C#N)c1ccc(Cl)cc1 (stereo not given)                   GI50  > 100 µM (inactive)
2  COC(=O)C1Cc2c([nH]c3ccccc23)[C@H](CC(C)C)N1 (stereo not given in full)                   GI50  > 100 µM (inactive)
3  CCOC(=O)C(C(=O)OCC)C1C=CCC2c3ccccc3COCC21 (stereo not given)                   GI50   40.5 µM (inactive)
4                      c1ccc(CCN2CCOCC2)nc1                   GI50  > 100 µM (inactive)
5  OCc1c2c(cc3c1CC1(C3)Cc3cc4c(c(CO)c3C1)CCC4)CCC2                   GI50   14.6 µM (inactive)
6  COc1ccc(C2Oc3ccc(Cl)cc3C=C2[N+](=O)[O-])cc1OC (stereo not given)                   GI50   2.72 µM (inactive)
7           CC(C)(/N=N/C(C)(C)C(=N)N)C(=N)N                   GI50  > 100 µM (inactive)

stdin: I am curious: what GI50 value has been reported for CCCN1CC=C(c2cc(C(=O)OCC)[nH]c2-c2cc(C)no2)C1=O ?
stdout: > 100 µM (inactive)

stdin: Quick one: Cc1cc2c(=O)cc(-c3ccncc3)oc2c(C(=O)O)c1C
stdout: > 100 µM (inactive)

stdin: Note, next up: CCCC1c2c(ccc3ccccc23)Oc2ccc3ccccc3c21
stdout: 33.5 µM (inactive)

stdin: Try the compound C=CCn1c(-c2ccc(-c3cs/c(=N\N=O)n3CC=C)cc2)cs/c1=N\N=O
stdout: > 100 µM (inactive)

stdin: Another compound to check: CC(=O)N1CCC2(C=Nc3ccccc32)CC1
stdout: > 100 µM (inactive)

stdin: O=[N+]([O-])c1ccc2c(c1)Nc1c3ccccc3nc3cccc-2c13 , same question.
stdout: 11.6 µM (inactive)

stdin: Another: C[C@@H]1CCC[C@]2(C)O[C@H]2CC[C@@](C)(O)[C@@H]2CC3=C(CO)C(=O)O[C@H]3[C@H]1O2
stdout: > 50 µM (inactive)

---

- Tested on: LXFL 529
- method summary: NCI tumour cell line growth inhibition, 48 h
Calls of active or inactive are those of the source. Rule as the data show it: active = GI50 up to about 1.1 µM and inactive = higher.
GI50 reference

Consider the reported GI50 for these compounds:
compound	GI50
C#C[C@]1(O)CCCC2=CC(=O)CC[C@@]21C	> 100 µM (inactive)
CCOC(=O)C(C)(C)Oc1ccc2c(-c3ccc(Cl)cc3)c(-c3ccc(Cl)cc3)c(=O)oc2c1	> 100 µM (inactive)
COC(=O)C1Cc2c([nH]c3ccccc23)[C@H](CC(C)C)N1 (stereo partly specified)	> 100 µM (inactive)
CC[C@]12C=CCN3CCC4(c5cc([C@@]6(C(=O)OC)CC7CN(CCc8c6[nH]c6ccccc86)C[C@@H]6CCCC[C@H]76)c(OC)cc5N(C)C4[C@](O)(C(=O)OC)C1OC(C)=O)[C@@H]32 (stereo partly specified)	< 0.01 µM (active)
CC1(OCc2ccccc2)C(=O)N2C1N(C(=O)OCc1ccccc1)CC2(C)C (stereo unspecified)	31.6 µM (inactive)

In the following, a different compound is considered.
stdin: # get_value(readout= GI50, system= LXFL 529) for CCCCCC(=O)N[C@H]1CCc2cc(O)c(O)c(O)c2-c2ccc(SC)c(=O)cc21
stdout: 21.5 µM (inactive)

---

- System: HOP-92
- method summary: NCI tumour cell line growth inhibition, 48 h
Activity calls are given as the source filed them. Rule as the data show it: active = GI50 up to about 1.1 µM and inactive = higher.
// allowed return values: active, inactive

Below are worked cases with known answers.
molecule	answer label
Cc1ccc(S(=O)(=O)NC(=O)C2=C3SCCN3C(=O)N(S(=O)(=O)c3ccc(C)cc3)C2c2ccccc2)cc1 (stereo not given)	inactive
CCCCCCCCCC(=O)N[C@H]1CCc2cc(OC)c(OC)c(OC)c2-c2ccc(SC)c(=O)cc21	active
COc1c2c(cc3c1C(=O)c1c(O)cccc1C3=O)CC(O)CC2 (stereo not given)	inactive
Nc1nc(N)c2c(-c3ccccc3)ccnc2n1	inactive
COc1cc(Cc2ccc3c(c2C#N)N(C)c2ccccc2S3)cc(OC)c1OC	inactive

stdin: # lookup: test call for c1ccc2c(c1)nc1n2C2CCC(C2)N1 (stereo not given)
stdout: inactive

stdin: Follow-up entry: O=C1c2ccccc2N1C(=O)c1ccccc1[N+](=O)[O-]
stdout: inactive

stdin: And for Cn1c(=O)ccc2cc(C(=O)c3ccccc3)ccc21 ?
stdout: inactive

stdin: Now consider Cn1c(=O)c2c3ccccc3c(C(=O)c3ccccc3)n2c2ccccc21 .
stdout: inactive

stdin: What about C=C(c1ccccc1)c1cc2c(=O)[nH]ccc2n1C ?
stdout: inactive

stdin: Also C[C@@H]1CC[C@]2(C(=O)O)CC[C@]3(C)C(=CC[C@@H]4[C@@]5(C)CC[C@H](O)C(C)(C)[C@@H]5CC[C@]43C)[C@@H]2[C@]1(C)O ?
stdout: inactive

stdin: What do you have for c1ccc2c(c1)CCN1CCc3ccccc3C1C2 (stereo not given) ?
stdout: inactive

stdin: Next molecule up: CC(=O)O[C@@H]1CC[C@@]2(C)C(=O)C34C[C@@]5(C)C([C@@H](C)CCCC(C)C)CCC5(C)[C@](O)(O3)C(=O)[C@H]4C2C1(C)C (stereo not given in full)
stdout: inactive

---

- Tested on: U-251
- method summary: NCI tumour cell line growth inhibition, 48 h
Activity calls are given as the source filed them. Cut-off read from the data, not from the text of the source: active = GI50 up to about 1.1 µM and inactive = higher.
// one of yes (1) = active, no (0) = inactive, no free text

>>> df
                                   compound  answer_label
0                 CCN(CC)C(=O)N1CCN(C=S)CC1        no (0)
1  COC(=O)C(/C(=N/NC(N)=O)C(=O)Nc1c(C)cccc1C(C)(C)C)c1nc2ccc(Cl)cc2nc1O (stereo unspecified)        no (0)
2     CCCC1c2c(ccc3ccccc23)Oc2ccc3ccccc3c21        no (0)

stdin: Kindly provide the recorded test outcome for the following compound: Cc1ccc(NC(=O)c2ccc(OP(=O)(O)Nc3ccc(C)cc3)cc2)cc1
stdout: no (0)

stdin: Item: Clc1ccc(-c2nnc(-c3nn(-c4ccccc4)c4nc5ccccc5nc34)o2)cc1
stdout: no (0)

stdin: Query CC1(C)OC1CC/C(=C/CBr)CBr (stereo unspecified) next
stdout: no (0)

stdin: Param item: C[C@@H]1CC[C@]2(C(=O)O)CC[C@]3(C)C(=CC[C@@H]4[C@@]5(C)CC[C@H](O)C(C)(C)[C@@H]5CC[C@]43C)[C@@H]2[C@]1(C)O
stdout: no (0)

stdin: Can you handle CSC(=N)N1N=C2c3ccccc3CC[C@@H]2[C@@H]1c1ccccc1 next?
stdout: no (0)

stdin: Thanks! And C[C@]12CC[C@H]3[C@@H](CC=C4C[C@@H](O)CC[C@@]43C)[C@@H]1C/C(=C/c1ccccc1)[C@@H]2O ?
stdout: no (0)

stdin: What about this compound? COc1ccc2[nH]c(Cl)c(/C=C3/C(=O)N(c4ccccc4)c4ccccc43)c2c1
stdout: no (0)

stdin: Okay, and Nc1ccc2c(SCCSc3c4ccccc4nc4cc(N)ccc34)c3ccccc3nc2c1 ?
stdout: no (0)

stdin: Also NCCSC1(O)C(=O)c2ccccc2-c2ccccc21 (stereo unspecified) , if possible.
stdout: yes (1)

stdin: Cool, now O=[N+]([O-])C1C2C=CC(C2)[C@H]1c1ccco1 (stereo partly specified)
stdout: no (0)

stdin: Same for COc1cc(N(CCC#N)CCC#N)ccc1C(=N/NC(=O)c1cc(Br)ccc1O)/N=N/c1ccc(C)cc1
stdout: no (0)

stdin: Another compound to look at: CSCC(COC(C)=O)(CSC)c1ccncc1
stdout: no (0)

stdin: Let us now turn to CN(C)CCNC(=O)c1cccc2c1nc(-c1ccc(F)cc1)c1ccccc12
stdout: no (0)

---

- System: SW-620
- method summary: NCI tumour cell line growth inhibition, 48 h
Calls of active or inactive are those of the source. No stated cut-off is given here; in the data, active = GI50 up to about 1.1 µM and inactive = higher.
Pick from true (1) (active), false (0) (inactive) when you respond.

Before answering, review these 3 worked examples.
>>> print(df.to_string())
                                   compound  answer_label
0  CCCCCCCCCC(=O)N[C@H]1CCc2cc(OC)c(OC)c(OC)c2-c2ccc(SC)c(=O)cc21      true (1)
1  C=C1CC(CCCl)(c2ccccc2)OC1=O (stereo not given)     false (0)
2  CCC1C(c2cc(OC)c(OC)c(OC)c2)c2cc3c(cc2OC1N1CCOCC1)OCO3 (stereo not given)     false (0)

stdin: # fetch the recorded call for C=CCn1c(-c2ccc(-c3cs/c(=N\N=O)n3CC=C)cc2)cs/c1=N\N=O here
stdout: false (0)

stdin: Now this one: COCCOCOc1ccc(OCc2ccccc2)cc1
stdout: false (0)

stdin: Param item: Cc1cc(Br)ccc1/N=N/C1C(=O)ON=C1c1ccccc1 (stereo not given)
stdout: false (0)

stdin: Param item: CCCc1cn2c(/C=N/NC(=N)N)c(-c3ccc(Cl)c([N+](=O)[O-])c3)nc2s1
stdout: true (1)

stdin: Another compound: COc1cc(-c2nn3c(=O)n(-c4ccc(Cl)cc4)c(=O)nc3s2)cc(OC)c1OC
stdout: false (0)
